meta.source: PubChem BioAssay (NCI)

Tested on: CAKI-1 renal
Assay: NCI tumour cell line growth inhibition, 48 h
MEASURED PARAMETER: TGI

As a guide, the following entries are already answered.
>  <COMPOUND>
CONC(C)=O

>  <TGI>
> 100 µM

$$$$
>  <COMPOUND>
Cc1occc1C(=S)Nc1ccc(Cl)c(/C=N/OC(C)(C)C)c1

>  <TGI>
41.1 µM

$$$$
>  <COMPOUND>
O=C(CCCN1CCC2(CC1)CC(=O)N(N1CCOCC1)C2=O)c1ccc(F)cc1

>  <TGI>
> 100 µM

$$$$
>  <COMPOUND>
Cc1cc(O)cc(C)c1/C=C/c1cncc(C(N)=O)c1

>  <TGI>
> 25 µM

$$$$
>  <COMPOUND>
CCSc1cc2c(cc1O)CC[C@@H]1[C@@H]2CC[C@]2(C)[C@@H](O)CC[C@@H]12

>  <TGI>
26.4 µM

$$$$
>  <COMPOUND>
CC(C)(C)OC(=O)NC(Cc1ccc(O)cn1)C(=O)O (centres undefined)

>  <TGI>
> 100 µM

$$$$
>  <COMPOUND>
COC(=O)C1=C(OC(=O)/C(=C/c2ccccc2)c2ccc(Cl)cc2)C(C(=O)OC)[C@@]2(O)[C@@H](C(=O)OC)[C@H](C)C[C@@H]1[C@@H]2C(=O)OC (some centres undefined)

>  <TGI>
> 100 µM

$$$$
>  <COMPOUND>
Cc1ccc(C(c2c(O)c3ccccc3n(-c3ccccc3)c2=O)c2c(O)c3ccccc3n(-c3ccccc3)c2=O)cc1

>  <TGI>
> 100 µM

$$$$
>  <COMPOUND>
CC1=NNC(=O)C1C1CC(c2c[nH]c3ccccc23)=NN(C(N)=O)C1=O (centres undefined)

>  <TGI>
> 100 µM

$$$$
>  <COMPOUND>
CC1=NN(c2ccc(S(=O)(=O)O)cc2)C(=O)/C1=C/c1ccc(Cl)cc1

>  <TGI>
> 100 µM

$$$$

Record request: TGI value, item OCCCNc1ncnc2[nH]ncc12 > 100 µM

====

System: MDA-MB-231 breast
Assay: NCI tumour cell line growth inhibition, 48 h
MEASURED PARAMETER: TGI

As a guide, the following entries are already answered.
>  <COMPOUND>
COc1ccc(C2=C(N)c3c(Cl)cccc3C2=O)cc1

>  <TGI>
> 100 µM

$$$$
>  <COMPOUND>
C=C/C(C)=C\CC1[C@](C)(O)CC[C@H]2C(C)(C)C(O)CC[C@]12C (stereo partly drawn)

>  <TGI>
> 100 µM

$$$$
>  <COMPOUND>
CC(=O)Nc1c(I)c(NC(C)=O)c(I)c(C(=O)O)c1I

>  <TGI>
> 100 µM

$$$$
>  <COMPOUND>
COC(=O)c1ccccc1NC(=NC1CCCCCC1)NS(=O)(=O)c1ccc(C)cc1

>  <TGI>
> 100 µM

$$$$
>  <COMPOUND>
O=C(CCCN1CCC2(CC1)CC(=O)N(N1CCOCC1)C2=O)c1ccc(F)cc1

>  <TGI>
> 100 µM

$$$$
>  <COMPOUND>
N#Cc1c(N2CCOCC2)nc(=S)[nH]c1-c1ccccc1

>  <TGI>
> 100 µM

$$$$

Record request: TGI value, item COc1ccc(C(O)(c2ccccc2)c2nccc3ccccc23)cc1 (stereo not drawn) > 100 µM

Record request: TGI value, item CC(=O)Oc1ccc2cc(Oc3ccc(Cl)c(Cl)c3)c(=O)oc2c1 > 100 µM

Record request: TGI value, item COc1ccc2c(c1)oc(=O)c1cc(OC)ccc12 > 100 µM

Record request: TGI value, item COC(=O)C1=CO[C@@H](OC2OC(CO)C(O)C(O)C2O)[C@H]2[C@@H](C)[C@@H](O)[C@@H](O)[C@@H]12 (stereo partly drawn) > 100 µM

Record request: TGI value, item Cc1cc(O)cc(C)c1/C=C/c1cncc(C(N)=O)c1 > 25 µM
